assay: NCI Yeast Anticancer Drug Screen. Data for the rad14 strain (AID 159);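 also: 0% = growth of vehicle-treated control cultures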; details: S. cerevisiae rad14 strain growth inhibition; at 1.2 µM; stronger effect = higher value
This is part of a sample that, as a whole, favours compounds with a hit. Of some 79,000 tested, about 15% had one in any assay.
Please respond with reported growth inhibition for every item in the list.
One number for each entry, in %.

Below, each entry is followed by its recorded growth inhibition result.
Which measured growth inhibition value corresponds to O=C(C#Cc1ccccc1)/C=C/c1ccccc1 ?
-1

Which measured growth inhibition value corresponds to Clc1ccc(/C(=C\c2ccccc2)Cn2ccnc2)cc1 ?
38

Which measured growth inhibition value corresponds to CN(C)CC(CN(C)C)C(=O)/C=C/c1ccc(Cl)cc1Cl ?
-2

Which measured growth inhibition value corresponds to COc1cc([N+](=O)[O-])c2ncccc2c1Br ?
35

Which measured growth inhibition value corresponds to CS(=O)(=O)O.[Ag] ?
59

Report growth inhibition for every entry below.
1. Cc1ccnc2c(O)cccc12
2. CCC[CH2][Ge]([CH2]CCC)([CH2]CCC)[O]C(=O)C(O)c1ccccc1 (configuration not stated)
3. CCCNCC(=O)O[C@]1(CC)C(=O)OCc2c1cc1n(c2=O)Cc2cc3ccccc3nc2-1
4. CCC(=O)C1=C(O)c2cc(OC)ccc2CC1C(=O)OC (configuration not stated)
5. Cc1ccc(NC(=O)CCC(=O)C(C)C(=O)c2ccccc2)c(C)c1 (configuration not stated)

[0, -3, 3, 2, 0]
